Target: Protein translocase subunit SecA (Escherichia coli (strain K12)) (UniProt P10408)
Sequence (P10408 whole entry): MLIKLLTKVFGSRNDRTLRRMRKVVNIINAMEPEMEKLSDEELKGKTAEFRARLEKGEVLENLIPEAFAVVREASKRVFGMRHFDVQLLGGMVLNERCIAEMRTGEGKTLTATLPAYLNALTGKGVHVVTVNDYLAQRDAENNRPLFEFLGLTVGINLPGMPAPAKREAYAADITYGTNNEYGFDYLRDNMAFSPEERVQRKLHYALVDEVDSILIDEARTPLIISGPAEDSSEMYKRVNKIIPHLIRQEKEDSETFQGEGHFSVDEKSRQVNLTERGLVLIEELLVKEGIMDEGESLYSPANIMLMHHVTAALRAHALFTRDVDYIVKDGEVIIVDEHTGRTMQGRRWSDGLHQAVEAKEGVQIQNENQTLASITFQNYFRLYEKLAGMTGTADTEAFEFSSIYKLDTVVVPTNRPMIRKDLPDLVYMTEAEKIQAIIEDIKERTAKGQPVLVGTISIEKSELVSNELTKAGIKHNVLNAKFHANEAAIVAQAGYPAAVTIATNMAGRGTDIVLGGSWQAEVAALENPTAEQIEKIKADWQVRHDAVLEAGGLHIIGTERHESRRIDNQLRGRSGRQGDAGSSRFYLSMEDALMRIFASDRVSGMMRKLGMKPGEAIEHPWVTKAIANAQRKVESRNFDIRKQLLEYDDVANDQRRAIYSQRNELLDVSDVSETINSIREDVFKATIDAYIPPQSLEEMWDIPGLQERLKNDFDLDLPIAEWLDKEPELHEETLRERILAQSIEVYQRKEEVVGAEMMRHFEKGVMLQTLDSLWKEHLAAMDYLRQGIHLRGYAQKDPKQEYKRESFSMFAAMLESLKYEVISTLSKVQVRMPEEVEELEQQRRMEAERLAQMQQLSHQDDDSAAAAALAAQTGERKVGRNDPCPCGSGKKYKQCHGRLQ
Test: Assay to Identify E. coli SecA ATPase Inhibitors
Type: functional
Design: scale not given: direction of the effect not stated beside the values
Details: 30 µM
Results with a measured potency or affinity are listed apart.
Measured Endpoint: Percent Effect

Below: 5 compounds and their reported Percent Effect.
N#Cc1ccc(OC2CCN(C(=O)c3ccc4c(c3)OCO4)CC2)nc1 :: -3.87%
O=C(CCc1nc2cccnc2[nH]1)NCc1cccnc1 :: -3.19%
CNC(=O)CS(=O)(=O)C1CCN(S(=O)(=O)c2ccccc2Br)CC1 :: 1.17%
Cc1cccc(-c2nc(CN3CCCCC3Cn3cncn3)no2)c1 (stereo unspecified) :: -1.65%
CC(C)c1nccn1CCCNC(=O)c1ccc(-c2cncnc2)nc1 :: -0.347%

Challenge: Fill in reported Percent Effect for this entry: CCN(CC)C(=O)CCn1ncc2c(Cl)cccc21
Response given: -0.381%

====

Each entry below carries its recorded Percent Effect.
Target: Arginase-2, mitochondrial (Homo sapiens) (UniProt P78540)
Sequence (whole entry): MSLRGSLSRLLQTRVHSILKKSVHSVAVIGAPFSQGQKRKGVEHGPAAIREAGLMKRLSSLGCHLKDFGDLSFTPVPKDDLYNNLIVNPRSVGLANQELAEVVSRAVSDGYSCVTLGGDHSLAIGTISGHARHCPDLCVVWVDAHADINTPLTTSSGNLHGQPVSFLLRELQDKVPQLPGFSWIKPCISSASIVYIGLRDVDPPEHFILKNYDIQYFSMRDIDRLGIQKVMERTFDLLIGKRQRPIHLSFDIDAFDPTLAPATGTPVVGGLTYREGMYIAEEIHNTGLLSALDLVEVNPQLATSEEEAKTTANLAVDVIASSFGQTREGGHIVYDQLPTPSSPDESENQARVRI
Assay: in vitro enzyme assay to detect the production of urea directly proportional to the activity of Arginase II; further: in the data most compounds retested in dose-response had high values
Type: functional
Set-up: scale not given: direction of the effect not stated beside the values
Settings: 33.3 µM
Respond numerically; units are % and should not be typed.

O=C1CC(NCc2ccncc2)CN1Cc1cccc(F)c1 (stereo unspecified) :: -2.86

Challenge: Fill in reported Percent Effect for this entry: CCC(CNC(=O)c1cc(OC)ccc1Br)N1CCc2ccccc2C1 (stereo unspecified)
Response given: -4.29

====

Biological target: Chromo domain-containing protein 1 (Saccharomyces cerevisiae (strain ATCC 204508 / S288c) (Baker's yeast))
Assay: ScCHD-1 Enzyme Inhibition Assay; further: in the data most compounds retested in dose-response had high values
Type: functional
Parameters: scale not given: direction of the effect not stated beside the values
Conditions: 30 µM
Each entry below carries its recorded Percent Effect.
Respond numerically; units are % and should not be typed.

Below: 2 compounds and their reported Percent Effect.
CCOc1ccc(C#N)cc1NCC(=O)Nc1cc(F)ccc1F :: 18.3
CN(C)C[C@H]1OC[C@@H]2CCN(C(=O)c3ccco3)C[C@@H]21 :: 0.795

Challenge: Fill in reported Percent Effect for this entry: Cc1cc(C(=O)N2C[C@@H]3[C@@H](C2)OCC(=O)N3CC2CC2)no1
Response given: 0.00283

Challenge: Fill in reported Percent Effect for this entry: Cc1occc1C(=O)N1CCC2(CCCN(CC3CCC3)C2=O)C1 (stereo unspecified)
Response given: -2.8

Challenge: Fill in reported Percent Effect for this entry: O=C1OCCN1CCOc1nc(-c2ccccc2Cl)no1
Response given: -6.2

Challenge: Fill in reported Percent Effect for this entry: O=C(CCN1CCCC1=O)NCc1cccnc1Oc1ccccc1
Response given: -1.4
